Test: yeast display, Sf9 membrane polyspecificity reagent, FACS + sequencing; frameworks hold sequencing errors
quantity.kind: polyreactivity (PSR sort gate)

- construct.sequence: "QVQLVESGGGLVQAGGSLRLSCAASGLIFGGYTMGWYRQAPGKERELVAAIDSGGSTKYADSVKGRFTISRDNAKNTVYLQMNSLKPEDTAVYYCAARDYYAWRYRYHHEVSEFDYWGQGTHVTVSS"
  polyreactivity (PSR sort gate): "low polyreactivity"
- construct.sequence: "QVQLVESGGGLVQAGGSLRLSCAASGRTFGVYAMGWYRQAPGKERELVATIRTTGSTNYADSVKGRFTISRDNAKNTVYLQMNSLKTEDTAVYYCGARQRQSKYYPYTTFTYDYWGQGTQVTVSS"
  polyreactivity (PSR sort gate): "high polyreactivity"
- construct.sequence: "QVQLVESGGGIVQAGGSLRLSCAASGGTFQRNAMGWYIQAPGKEREFVATITRGGGSTYYADSVKGRFTISRDNAKNTVYFQMNSLKPEDSAVYYCNANTSYYQRYNYWGQGTQVTVSS"
  polyreactivity (PSR sort gate): "high polyreactivity"
- construct.sequence: "QVQLVESGGGLVQAGCSLRLSCAATGSFFGFYSMGWYRQAPGKEMELVASITISGGSTYYADSVKGRFTISRDNAKNNVYLQMNSLKLEDTAVYFCAAETYAYLFHTYDYWGQGTHVTVSS"
  polyreactivity (PSR sort gate): "low polyreactivity"
- construct.sequence: "QVQLVESGGGLVQAGGSLRLSCAASGFTFSFYTMGWYRQAPGKERELVAAISTSGSTYYADSVKGRFTISRDNAKNTVYLQMNSLKPEDTAVYYCAAGRWWRYFTWHGYWGQGTQVTVSS"
  polyreactivity (PSR sort gate): "high polyreactivity"
- construct.sequence: "QVQLVESGGGLVQAGGSLRLSCAASGFTFPRNVMGWYRQAPGKERELVATISSGGRTNYADSVKGRFTISRDNAKNTVYLQMNSLKPEDTAVYYCAARVYTYYYDLHKRYYWGQGTQVTVSS"
  polyreactivity (PSR sort gate): "high polyreactivity"
- construct.sequence: "QVQLVESGGGLVQAGGSLRLSCAASGSTLDYNDMGWYRQAPGKEREFVAAIRSNDGSTYYADSVKGRFTISRDNAKKTVYLQMNSLKPEDTAVYYCNKDVWDGYDWPEFDYLGQGTQVTVSS"
  polyreactivity (PSR sort gate): "low polyreactivity"
- construct.sequence: "QVQLVESGGGLVQAGGSLRLSCAASGTFTVNTMGWYRQAPGKERELVAAISTGDTTTYADSVKGRFTISRDNAKNTVYLQMNSLKPEDTAVYYCNVDIGVYAYESDYWGQGTQVTVSS"
  polyreactivity (PSR sort gate): "low polyreactivity"

Request: State the recorded polyreactivity (PSR sort gate) for this entry: QVQLEESGGCLVQAGGSLRLSCAATGITFYLYAMGWYRHAPGKERELVAAINSGGSTSYADSVKGRFTISRDNAKNTVYLQMNSLKTEDTADYYCNKLFLKFWGHQYGYWGQGTQVTVSS
Response: high polyreactivity

Request: State the recorded polyreactivity (PSR sort gate) for this entry: QVQLVESGGGLVQAGGSLRLSCAASGRTFPLYGMGWYRQAPGKERELVATISRSGGSTYYADSVKGRFTISRDNAKNTVYLQMNSLKPEDTAVYYCIADRHYVPYYSRPRYIPYDYWGQGTQVTVSS
Response: high polyreactivity

Request: State the recorded polyreactivity (PSR sort gate) for this entry: QVQLVESGGGLVQAGGSLRLSCAASGFIIIGYVMGWYRQSPGKERELVAAITSSVGSTYYADSVKGRFTISRDNAKNPVYLQMNSLKPEDTAVYYCAAEYYLLWSGMEYWGEGTQVTVSS
Response: low polyreactivity
